Origin of measurements: patent US10710980B2

measurement target: wild-type ALK2 (aa172-499) (Homo sapiens (Human), UniProt Q04771)
Sequence (Q04771 172-499): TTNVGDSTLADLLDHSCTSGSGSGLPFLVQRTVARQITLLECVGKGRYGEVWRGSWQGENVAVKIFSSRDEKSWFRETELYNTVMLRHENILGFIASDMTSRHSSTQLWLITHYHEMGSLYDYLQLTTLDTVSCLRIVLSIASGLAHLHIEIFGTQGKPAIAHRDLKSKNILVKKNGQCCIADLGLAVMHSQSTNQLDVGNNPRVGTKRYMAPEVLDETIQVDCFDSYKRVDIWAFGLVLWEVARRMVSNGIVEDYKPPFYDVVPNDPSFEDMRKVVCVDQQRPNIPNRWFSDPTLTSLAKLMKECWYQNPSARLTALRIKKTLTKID
test method notes: Caliper biochemical peptide phosphorylation assay, ALK2
condition label: 15 μm ATP, 60 min at 30° C.; read-out: ALK2 EPK (IC50)
readout name: IC50 (nM)

Some solved entries appear below for comparison.
{"columns": ["chem smiles", "IC50 / nM"],
 "data": [
  ["Nc1ncc(-c2ccc([C@@]34C[C@@H]3CN(C3CCOCC3)C4)cc2)cc1C(=O)NC12CCC(O)(CC1)CC2", 23],
  ["Nc1ncc(-c2ccc([C@@]34C[C@@H]3CN(CC(F)(F)F)C4)cc2)cc1C(=O)N[C@H]1CC[C@H](O)CC1", 80]
]}

(P) C#CCN1C[C@@H]2C[C@]2(c2ccc(-c3cnc(N)c(C(=O)N[C@H]4CC[C@H](O)CC4)c3)cc2)C1
(Q) CC(C)N1C[C@@H]2C[C@]2(c2ccc(-c3cnc(N)c(C(=O)N[C@H]4CC[C@](C)(O)CC4)c3)cc2)C1
Which record shows the lower IC50: the first, P , or the second, Q ? Indicate your choice by writing its label.
Q

(1) COCCN1C[C@H]2C[C@@]2(c2ccc(-c3cnc(N)c(C(=O)N[C@H]4CC[C@H](O)CC4)c3)cc2)C1
(2) C[C@@H]1CCCN1Cc1ccc(-c2cnc(N)c(C(=O)N[C@H]3CC[C@](C)(O)CC3)c2)c(F)c1F
Which record shows the lower IC50: the first, 1 , or the second, 2 ? Indicate your choice by writing its label.
2
(2: 70 nM, 1: 140 nM)

###

Record type: IC50 measurement. Applies to: ALK6 (aa168-495) (Homo sapiens (Human), UniProt O00238)
readout name: IC50 (µM)

Some solved entries appear below for comparison.
{"columns": ["chem smiles", "measurement target", "IC50, µM"],
 "data": [
  ["CC(C)(O)C12CC(NC(=O)c3cc(-c4ccc([C@@]56C[C@@H]5CN(C5CCOCC5)C6)cc4)cnc3N)(C1)C2", "ALK6 (aa168-495) (Homo sapiens (Human), UniProt O00238)", 10],
  ["CC(C)N1C[C@@H]2C[C@]2(c2ccc(-c3cnc(N)c(C(=O)N[C@H]4CC[C@](C)(O)CC4)c3)cc2)C1", "ALK6 (aa168-495) (Homo sapiens (Human), UniProt O00238)", 3.3],
  ["Nc1ncc(-c2ccc([C@@]34C[C@@H]3CN(C3CCC(F)(F)CC3)C4)cc2)cc1C(=O)N[C@H]1CC[C@H](O)CC1", "ALK6 (aa168-495) (Homo sapiens (Human), UniProt O00238)", 3],
  ["C#CCN1C[C@H]2C[C@@]2(c2ccc(-c3cnc(N)c(C(=O)N[C@H]4CC[C@H](O)CC4)c3)cc2)C1", "ALK6 (aa168-495) (Homo sapiens (Human), UniProt O00238)", 3.5],
  ["C[C@]1(O)CC[C@H](NC(=O)c2cc(-c3ccc([C@]45C[C@H]4CN(C4CCC(F)(F)CC4)C5)cc3)cnc2N)CC1", "ALK6 (aa168-495) (Homo sapiens (Human), UniProt O00238)", 8.4]
]}

(a) Nc1ncc(-c2ccc([C@]34C[C@H]3CN(C(CF)CF)C4)cc2)cc1C(=O)N[C@H]1CC[C@H](O)CC1
(b) Nc1ncc(-c2ccc([C@]34C[C@H]3CN(CCF)C4)cc2)cc1C(=O)N[C@H]1CC[C@H](O)CC1
Which value of IC50 is greater, the one for a or the one for b ? Indicate your choice by writing its label.
a

(a) CC(C)N1C[C@@H]2C[C@]2(c2ccc(-c3cnc(N)c(C(=O)N[C@H]4CC[C@@H](O)CC4)c3)cc2)C1
(b) Nc1ncc(-c2ccc([C@@]34C[C@@H]3CN(C3CCS(=O)(=O)CC3)C4)cc2)cc1C(=O)N[C@H]1CC[C@H](O)CC1
Which value of IC50 is greater, the one for a or the one for b ? Indicate your choice by writing its label.
a
(a: 5.8 µM, b: 2 µM)
